Reference source: paper PMC6733935

# Test system: MDA-MB-231 tumors
# assayName: in vivo
# Type: in vivo, nude mice
# testSettings: nude mice with MDA-MB-231 tumors, 2 h p.i.; mean ± SD, n = 3-5
# Procedure: BN/GRP receptor-positive MDA-MB-231 and PC3 cell lines (American Type Culture Collection, Rockville, USA) were grown as monolayers at 37 °C in a humidified atmosphere containing RPMI-1640 culture media with 10% fetal bovine serum (FBS) in tissue culture flasks. […] The uptake of ^68Ga-radiolabeled peptides in the tumors and other major body organs was calculated by γ-counting as described above.
Numbered stars: 1 amine (or outer) side, 2 acyl side, 3 side chain; on linkers, the order of the positions; unused ones are H or OH. Square brackets hold non-standard residues; d marks the D form. Peptide text beside a SMILES is read from it. * marks the point of attachment. DOTA = O=C(O)CN1CCN(CC(=O)O)CCN(CC(=O)*)CCN(CC(=O)O)CC1; Cha = N[C@@H](CC1CCCCC1)C(=O)O; X1 = O=C(CCC(=O)[*:2])CN[*:1]; 4Abz = Nc1ccc(C(=O)O)cc1; Nle = CCCC[C@H](N)C(=O)O; Ahx = NCCCCCC(=O)O
measuredMetric: Uptake in Tumor (% ID/g)
Give the number; % ID/g is assumed, so skip it.

Sample answers from the record:
INSERT INTO assay_data (molecule, unitsofmeasure, measuredvalue) VALUES
  ('CCCC[C@H](NC(=O)[C@H](Cc1c[nH]cn1)NC(=O)[C@H](CC1CCCCC1)NC(=O)[C@@H](NC(=O)[C@H](C)NC(=O)[C@H](Cc1c[nH]c2ccccc12)NC(=O)[C@H](CCC(N)=O)NC(=O)[C@H](CS)NC(=O)CNC(=O)CNC(=O)CCC(=O)CNC(=O)CN1CCN(CC(=O)O)CCN(CC(=O)O)CCN(CC(=O)O)CC1)C(C)C)C(=O)N[C@@H](CCSC)C(N)=O [^68Ga-DOTA-ALA-BN Cyclen, metal not drawn] ({DOTA}-[X1]GGCQWAV[Cha]H[Nle]M-NH2)', '% ID/g', 0.84),
  ('CCCC[C@H](NC(=O)[C@H](Cc1c[nH]cn1)NC(=O)[C@H](CC1CCCCC1)NC(=O)[C@@H](NC(=O)[C@H](C)NC(=O)[C@H](Cc1c[nH]c2ccccc12)NC(=O)[C@H](CCC(N)=O)NC(=O)[C@H](CS)NC(=O)CNC(=O)CNC(=O)c1ccc(NC(=O)CN2CCN(CC(=O)O)CCN(CC(=O)O)CCN(CC(=O)O)CC2)cc1)C(C)C)C(=O)N[C@@H](CCSC)C(N)=O [^68Ga-DOTA-Abz-BN Cyclen, metal not drawn] ({DOTA-4Abz}-GGCQWAV[Cha]H[Nle]M-NH2)', '% ID/g', 1.30),
  ('CCCC[C@H](NC(=O)[C@H](Cc1c[nH]cn1)NC(=O)[C@H](CC1CCCCC1)NC(=O)[C@@H](NC(=O)[C@H](C)NC(=O)[C@H](Cc1c[nH]c2ccccc12)NC(=O)[C@H](CCC(N)=O)NC(=O)[C@H](CS)NC(=O)CNC(=O)CNC(=O)c1ccc(NC(=O)CN2CCN(CC(=O)O)CCN(CC(=O)O)CCN(CC(=O)O)CC2)cc1)C(C)C)C(=O)N[C@@H](CCSC)C(N)=O [^68Ga-DOTA-Abz-BN Tris-, metal not drawn] ({DOTA-4Abz}-GGCQWAV[Cha]H[Nle]M-NH2)', '% ID/g', 1.37);

Which Uptake in Tumor value belongs to CCCC[C@H](NC(=O)[C@H](Cc1c[nH]cn1)NC(=O)[C@H](CC1CCCCC1)NC(=O)[C@@H](NC(=O)[C@H](C)NC(=O)[C@H](Cc1c[nH]c2ccccc12)NC(=O)[C@H](CCC(N)=O)NC(=O)[C@H](CS)NC(=O)CNC(=O)CNC(=O)CCCCCNC(=O)CN1CCN(CC(=O)O)CCN(CC(=O)O)CCN(CC(=O)O)CC1)C(C)C)C(=O)N[C@@H](CCSC)C(N)=O [^68Ga-DOTA-Ahx-BN Tris-, metal not drawn] ({DOTA-Ahx}-GGCQWAV[Cha]H[Nle]M-NH2) ?
1.62

Which Uptake in Tumor value belongs to CCCC[C@H](NC(=O)[C@H](Cc1c[nH]cn1)NC(=O)[C@H](CC1CCCCC1)NC(=O)[C@@H](NC(=O)[C@H](C)NC(=O)[C@H](Cc1c[nH]c2ccccc12)NC(=O)[C@H](CCC(N)=O)NC(=O)[C@H](CS)NC(=O)CNC(=O)CNC(=O)CCC(=O)CNC(=O)CN1CCN(CC(=O)O)CCN(CC(=O)O)CCN(CC(=O)O)CC1)C(C)C)C(=O)N[C@@H](CCSC)C(N)=O [^68Ga-DOTA-ALA-BN Tris-, metal not drawn] ({DOTA}-[X1]GGCQWAV[Cha]H[Nle]M-NH2) ?
1.25

Which Uptake in Tumor value belongs to CCCC[C@H](NC(=O)[C@H](Cc1c[nH]cn1)NC(=O)[C@H](CC1CCCCC1)NC(=O)[C@@H](NC(=O)[C@H](C)NC(=O)[C@H](Cc1c[nH]c2ccccc12)NC(=O)[C@H](CCC(N)=O)NC(=O)[C@H](CS)NC(=O)CNC(=O)CNC(=O)CCCCCNC(=O)CN1CCN(CC(=O)O)CCN(CC(=O)O)CCN(CC(=O)O)CC1)C(C)C)C(=O)N[C@@H](CCSC)C(N)=O [^68Ga-DOTA-Ahx-BN Cyclen, metal not drawn] ({DOTA-Ahx}-GGCQWAV[Cha]H[Nle]M-NH2) ?
1.65
